- method.description: Intrinsic clearance in Sprague-Dawley rat liver microsomes assessed per mg protein at 1 uM measured after 60 mins
- Assay type: ADME, Microsome
- reported.conditions: read-out: CLH
endpoint.label: microsomal CLint at 1 µM

In: Quick check: microsomal CLint at 1 µM of "CCCC[C@@H](CCO)Nc1nc(N)ncc1OC" ?
Out: 60 µL/min/mg

###

- measurement.target: Toll-like receptor 7 (Homo sapiens) (UniProt Q9NYK1)
- Sequence (Q9NYK1 whole entry): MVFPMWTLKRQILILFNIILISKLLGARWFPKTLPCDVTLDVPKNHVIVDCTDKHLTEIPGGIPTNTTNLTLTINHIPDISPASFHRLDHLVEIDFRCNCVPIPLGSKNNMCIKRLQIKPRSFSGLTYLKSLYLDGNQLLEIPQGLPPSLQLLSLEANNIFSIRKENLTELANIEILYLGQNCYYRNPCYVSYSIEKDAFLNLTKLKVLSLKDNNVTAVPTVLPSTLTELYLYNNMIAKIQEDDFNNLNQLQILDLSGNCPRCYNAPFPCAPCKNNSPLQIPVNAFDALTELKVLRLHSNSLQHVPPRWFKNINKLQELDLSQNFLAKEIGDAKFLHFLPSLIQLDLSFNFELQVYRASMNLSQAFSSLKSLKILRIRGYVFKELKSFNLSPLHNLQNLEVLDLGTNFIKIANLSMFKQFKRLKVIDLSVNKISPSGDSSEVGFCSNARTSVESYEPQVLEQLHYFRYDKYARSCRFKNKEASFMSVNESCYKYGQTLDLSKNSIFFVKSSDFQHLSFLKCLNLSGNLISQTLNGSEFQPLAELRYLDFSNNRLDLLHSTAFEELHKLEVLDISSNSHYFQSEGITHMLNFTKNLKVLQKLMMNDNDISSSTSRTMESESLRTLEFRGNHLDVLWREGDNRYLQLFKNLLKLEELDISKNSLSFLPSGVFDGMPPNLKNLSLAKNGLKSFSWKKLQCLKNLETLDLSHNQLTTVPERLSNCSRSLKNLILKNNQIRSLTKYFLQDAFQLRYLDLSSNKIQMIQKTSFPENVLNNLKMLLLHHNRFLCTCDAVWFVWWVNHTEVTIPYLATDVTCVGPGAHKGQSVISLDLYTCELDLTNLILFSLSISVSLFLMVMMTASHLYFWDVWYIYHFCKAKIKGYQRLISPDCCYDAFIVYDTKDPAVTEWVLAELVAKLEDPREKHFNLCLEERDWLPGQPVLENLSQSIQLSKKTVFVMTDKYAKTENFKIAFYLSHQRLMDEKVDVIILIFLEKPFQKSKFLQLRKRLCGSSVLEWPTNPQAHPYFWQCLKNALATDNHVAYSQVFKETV
- method.description: Agonist activity at human TLR7 expressed in HEK293 cells measured after 6 hrs by NF-kappaB luciferase reporter gene assay
- Assay type: cell-based
# LED per entry
Number only, in µM; omit the unit.

Previously resolved entries follow.
CCCCNc1nc(N)ncc1OCc1nc2ccccc2s1; 0.28
CCCCNc1nc(N)ncc1OCc1nccc2ccccc12; 0.008
CCCC[C@@H](CO)Nc1nc(N)ncc1OC; 8.01
CCCCNc1nc(N)ncc1OCc1nc2ccccc2[nH]1; 0.032

Now look at this entry.
In: Quick check: LED of "CCCCCNc1nc(N)ncc1OCC" ?
Out: 6
